- test_description: Antiviral activity against HCoV-OC43 infected in MRC5 cells assessed as inhibition of viral cytopathic effect measured after 42 hrs by real-time PCR method
- Format: functional, cell-based, Human coronavirus OC43
- condition_parameters: Betacoronavirus 1, OC43, MRC5, 42 h
property_label: pEC50
Answer as the number alone; pEC50 is minus log10 of concentration in mol/L.

Exam item: Param item = `Cn1cnc(Cn2c(=O)[nH]/c(=N\c3cc4cn(C)nc4cc3Cl)n(Cc3cc(F)c(F)cc3F)c2=O)n1` ; retrieve measured pEC50.
Marked response: 7.13
